Tested on: TFEB
method-summary: TFEB nuclear translocation assay, HeLa wt cells
Assay type: cell-based
run-parameters: Homo sapiens, HeLa, 2 h, 2 hrs compound treatment, Table 1 does not say HeLa wt or TRPML1 KO
recorded-metric: AC50

These solved cases illustrate the format of a correct answer.
compound: O=S(=O)(Nc1ccccc1N1CCN(c2ccc(Cl)cc2F)CC1)C1CCOCC1
measured-target: TFEB
recorded-metric: AC50
observed-result: 2.01 to 8 µM
--
compound: CN1Cc2cc(S(=O)(=O)Nc3ccccc3N3CCC(c4ccc(Cl)cc4F)CC3)ccc2C1=O
measured-target: TFEB
recorded-metric: AC50
observed-result: ≥ 10 µM
--
compound: CN(C)S(=O)(=O)c1ccc(S(=O)(=O)Nc2ccccc2N2CCC(c3cccc(F)c3C(=O)O)CC2)cc1
measured-target: TFEB
recorded-metric: AC50
observed-result: ≥ 10 µM
--
compound: CC(C)(C)C(=O)N1CCN(c2ccccc2NS(=O)(=O)c2ccc3c(c2)CC(Cl)(Cl)C3=O)CC1
measured-target: TFEB
recorded-metric: AC50
observed-result: 2.01 to 8 µM
--
compound: CCOCCC1CCN(c2ccccc2NS(=O)(=O)c2ccc(S(=O)(=O)N(C)C)cc2)CC1
measured-target: TFEB
recorded-metric: AC50
observed-result: ≤ 2 µM
--
compound: COc1ccc(S(=O)(=O)Nc2ccccc2N2CCC3(CC2)CN(C)c2cc(F)ccc23)cc1
measured-target: TFEB
recorded-metric: AC50
observed-result: ≤ 2 µM

Shifting focus to the compound that follows.
Data request: Give the measured AC50 of COC1Cc2ccc(S(=O)(=O)Nc3ccccc3N3CCC4(CC3)COC(C)(C)C4)cc2C1 (stereo not shown) .
Data returned: 2.01 to 8 µM

Cited source: patent US20230104936A1
